test: Pharmacokinetic study, intraperitoneal injection; type: in vivo, male Swiss–Webster mice; conditions: male, Swiss-Webster, mouse, whole blood, ip, 1.25 mg/kg, m ± SE of 4 mice
measure: AUC(0-t) (ng·h/mL)
Numbers only; they are read as ng·h/mL.

compound O=C(NCCCCCCNC(=O)NCC12CC3CC(CC(C3)C1)C2)NCC12CC3CC(CC(C3)C1)C2 , AUC(0-t) observed: 26.4

====

experiment: Pharmacokinetic study, intraperitoneal injection; format: in vivo, male Swiss–Webster mice; settings: male, Swiss-Webster, mouse, whole blood, ip, 1.25 mg/kg, m ± SE of 4 mice; i.p.; read-out: Cmax
measure: Cmax (ng/mL)
Numbers only; they are read as ng/mL.

compound O=C(NCCCCCCNC(=O)NCC12CC3CC(CC(C3)C1)C2)NCC12CC3CC(CC(C3)C1)C2 , Cmax observed: 35

====

test: Pharmacokinetic study, intraperitoneal injection; format: in vivo, male Swiss–Webster mice; details: Swiss-Webster, mouse, whole blood, ip; i.p. 1.25 mg/kg, male mice; read-out: half-life (Thalf)
measure: half-life

compound O=C(NCCCCCCNC(=O)NCC12CC3CC(CC(C3)C1)C2)NCC12CC3CC(CC(C3)C1)C2 , half-life observed: ~10 min
